test system: E. coli NDM-1 (T2359); assay: Checkerboard assay with imipenem, E. coli NDM-1 (T2359); type: cell-based; conditions: Table 6; +8 mg/L compound
Answer each item with its documented Imipenem MIC.
One number for each entry, in µg/mL.

Worked examples follow.
>  <Smiles>
O=C(CCS)Nc1cccc(S(=O)(=O)O)c1

>  <Unit>
µg/mL

>  <Imipenem MIC>
128

$$$$
>  <Smiles>
O=C(CCS)Nc1ccc(C(=O)O)cc1

>  <Unit>
µg/mL

>  <Imipenem MIC>
128

$$$$
>  <Smiles>
N=C(N)NS(=O)(=O)c1ccc(NC(=O)CCS)cc1

>  <Unit>
µg/mL

>  <Imipenem MIC>
128

$$$$
>  <Smiles>
NC(=O)NS(=O)(=O)c1ccc(NC(=O)CCS)cc1

>  <Unit>
µg/mL

>  <Imipenem MIC>
128

$$$$

Request the reported Imipenem MIC associated with `O=C(CCS)Nc1cccc(C(=O)O)c1` 64

###

system: E. coli VIM-1 (T2544); assay: Checkerboard assay with imipenem, E. coli VIM-1 (T2544); format: cell-based; conditions: +32 mg/L compound
Quantity name: Imipenem MIC (mg/L)
One number for each entry, in mg/L.

Worked examples follow.
>  <Molecule>
O=C(CCS)Nc1cccc(S(=O)(=O)O)c1 [HIPS5672]

>  <Unit>
mg/L

>  <Imipenem MIC>
32

$$$$
>  <Molecule>
O=C(CCS)Nc1ccc(C(=O)O)cc1 [HIPS5695]

>  <Unit>
mg/L

>  <Imipenem MIC>
4

$$$$

# per-item lookup of Imipenem MIC; items listed below
1. N=C(N)NS(=O)(=O)c1ccc(NC(=O)CCS)cc1 [HIPS5683]
2. NC(=O)NS(=O)(=O)c1ccc(NC(=O)CCS)cc1 [HIPS5682]
3. O=C(CCS)Nc1cccc(C(=O)O)c1 [HIPS5694, 3-(3-mercaptopropanamido)benzoic acid]

16
16
16

###

System: E. coli VIM-1 (T2544)
Assay: Checkerboard assay with imipenem, E. coli VIM-1 (T2544)
Assay type: cell-based
Conditions: +2 mg/L compound
Protocol: Fractional inhibitory concentration index (FICI). The checkerboard assay was performed to test for synergy in vitro. […] FICIs≤0.5 were defined as synergistic; FICIs from >0.5 to […] were defined as additive; FICIs from 1 to ≤4 were defined as indifferent and FICIs>4 were defined as antagonistic (Doern, C. D. When Does 2 plus 2 Equal 5? A Review of Antimicrobial Synergy Testing. J. Clin. Microbial. 2014, 52 (12), 4124-4128. https://doi.org/10.1128/JCM.01121-14).
Quantity name: Imipenem MIC (µg/mL)
Numbers only, in µg/mL.

Worked examples follow.
>  <Smiles>
NC(=O)NS(=O)(=O)c1ccc(NC(=O)CCS)cc1

>  <System tested>
E. coli VIM-1 (T2544)

>  <Imipenem MIC / µg/mL>
32

$$$$
>  <Smiles>
O=C(CCS)Nc1cccc(S(=O)(=O)O)c1

>  <System tested>
E. coli VIM-1 (T2544)

>  <Imipenem MIC / µg/mL>
64

$$$$
>  <Smiles>
O=C(CCS)Nc1cccc(C(=O)O)c1

>  <System tested>
E. coli VIM-1 (T2544)

>  <Imipenem MIC / µg/mL>
32

$$$$
>  <Smiles>
O=C(CCS)Nc1ccc(C(=O)O)cc1

>  <System tested>
E. coli VIM-1 (T2544)

>  <Imipenem MIC / µg/mL>
16

$$$$

Let us examine a further case.
Request the reported Imipenem MIC associated with `N=C(N)NS(=O)(=O)c1ccc(NC(=O)CCS)cc1` 32

###

test system: E. coli VIM-1 (T2544); experiment: Checkerboard assay with imipenem, E. coli VIM-1 (T2544); format: cell-based; settings: +8 mg/L compound
Quantity name: Imipenem MIC (µg/mL)
Give bare numbers, in µg/mL.

Worked examples follow.
>  <Smiles>
NC(=O)NS(=O)(=O)c1ccc(NC(=O)CCS)cc1

>  <Quantity name>
Imipenem MIC

>  <Unit>
µg/mL

>  <Experimental result>
32

$$$$
>  <Smiles>
O=C(CCS)Nc1ccc(C(=O)O)cc1

>  <Quantity name>
Imipenem MIC

>  <Unit>
µg/mL

>  <Experimental result>
16

$$$$
>  <Smiles>
O=C(CCS)Nc1cccc(C(=O)O)c1

>  <Quantity name>
Imipenem MIC

>  <Unit>
µg/mL

>  <Experimental result>
32

$$$$
>  <Smiles>
N=C(N)NS(=O)(=O)c1ccc(NC(=O)CCS)cc1

>  <Quantity name>
Imipenem MIC

>  <Unit>
µg/mL

>  <Experimental result>
32

$$$$

Let us examine a further case.
Request the reported Imipenem MIC associated with `O=C(CCS)Nc1cccc(S(=O)(=O)O)c1` 64

###

biological target: NDM-1 (Klebsiella pneumoniae, UniProt C7C422); construct: made in house; experiment: In vitro inhibition assay (kinetic fluorescence-based activity assay), NDM-1; assay type: biochemical; details: Means and SD of at least two independent experiments
Sequence (C7C422 29-270, looked up, species assumed): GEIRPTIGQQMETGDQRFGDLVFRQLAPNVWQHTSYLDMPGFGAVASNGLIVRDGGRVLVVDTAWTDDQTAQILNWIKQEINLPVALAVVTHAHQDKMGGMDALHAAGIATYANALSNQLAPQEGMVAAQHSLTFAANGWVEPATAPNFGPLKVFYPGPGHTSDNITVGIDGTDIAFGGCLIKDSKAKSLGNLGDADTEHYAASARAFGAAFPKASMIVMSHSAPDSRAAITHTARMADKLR
Quick rule for you: IC50 under 4 µM gets condition met, anything else gets condition not met.

Illustrative cases are given below, each with its answer.
>  <Smiles>
O=C(CCS)Nc1cccc(O)c1

>  <System tested>
NDM-1 (Klebsiella pneumoniae, UniProt C7C422)

>  <Assigned class>
condition met

$$$$
>  <Smiles>
O=C(CCS)Nc1ccccc1O

>  <System tested>
NDM-1 (Klebsiella pneumoniae, UniProt C7C422)

>  <Assigned class>
condition met

$$$$
>  <Smiles>
CS(=O)(=O)Nc1cccc(NC(=O)CCS)c1

>  <System tested>
NDM-1 (Klebsiella pneumoniae, UniProt C7C422)

>  <Assigned class>
condition met

$$$$
>  <Smiles>
N=C(N)NS(=O)(=O)c1ccc(NC(=O)CCS)cc1

>  <System tested>
NDM-1 (Klebsiella pneumoniae, UniProt C7C422)

>  <Assigned class>
condition met

$$$$
>  <Smiles>
CN(C)S(=O)(=O)c1ccc(NC(=O)CCS)cc1

>  <System tested>
NDM-1 (Klebsiella pneumoniae, UniProt C7C422)

>  <Assigned class>
condition met

$$$$
>  <Smiles>
NC(=O)NS(=O)(=O)c1ccc(NC(=O)CCS)cc1

>  <System tested>
NDM-1 (Klebsiella pneumoniae, UniProt C7C422)

>  <Assigned class>
condition not met

$$$$

Hello, I'm reviewing records and need to know if IC50 of `O=C(CCS)Nc1ccc(Cl)c(Cl)c1` is below 4 µM. Could you check? condition met

# repeat for `CS(=O)(=O)Nc1ccccc1NC(=O)CCS` condition not met

###

target: IMP-7 (Pseudomonas aeruginosa); assay: In vitro inhibition assay (kinetic fluorescence-based activity assay), IMP-7; type: biochemical; details: Means and SD of at least two independent experiments
Each entry falls into one class according to its IC50; the ranges are low range = under 2 µM, mid range = from 2 µM up to 6 µM, high range = 6 µM and over

Illustrative cases are given below, each with its answer.
>  <Smiles>
CN(C)S(=O)(=O)c1ccc(NC(=O)CCS)cc1

>  <Assigned class>
mid range

$$$$
>  <Smiles>
O=C(CCS)Nc1cccc(C(=O)O)c1

>  <Assigned class>
high range

$$$$
>  <Smiles>
O=C(CCS)Nc1ccccc1O

>  <Assigned class>
mid range

$$$$
>  <Smiles>
NC(=O)NS(=O)(=O)c1ccc(NC(=O)CCS)cc1

>  <Assigned class>
high range

$$$$

Given `N=C(N)NS(=O)(=O)c1ccc(NC(=O)CCS)cc1` , name the class its IC50 places it in. mid range

###

Answer each item with its documented IC50.
target: IMP-7 (Pseudomonas aeruginosa, UniProt Q93AU3); experiment: In vitro inhibition assay (kinetic fluorescence-based activity assay), IMP-7; format: biochemical; details: Means and SD of at least two independent experiments
Sequence (Q93AU3 entry or part of it): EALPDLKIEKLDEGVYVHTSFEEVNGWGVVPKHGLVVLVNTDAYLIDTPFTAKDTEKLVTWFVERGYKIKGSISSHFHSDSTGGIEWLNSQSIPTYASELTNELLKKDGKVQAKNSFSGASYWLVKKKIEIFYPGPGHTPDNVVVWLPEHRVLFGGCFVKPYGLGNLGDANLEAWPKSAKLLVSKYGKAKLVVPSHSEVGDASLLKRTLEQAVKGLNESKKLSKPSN
Numbers only, in µM.

Worked examples follow.
>  <Compound>
Nc1ccc(NC(=O)CCS)cc1 [HIPS5666]

>  <IC50, µM>
2.1

$$$$
>  <Compound>
COC(=O)c1ccccc1NC(=O)CCS [HIPS1685]

>  <IC50, µM>
1

$$$$
>  <Compound>
O=C(CCS)Nc1ccc(Cl)c(Cl)c1 [HIPS1447]

>  <IC50, µM>
5

$$$$
>  <Compound>
O=C(CCS)Nc1cccc(O)c1 [HIPS1687]

>  <IC50, µM>
1.4

$$$$
>  <Compound>
CS(=O)(=O)Nc1cccc(NC(=O)CCS)c1 [HIPS5585]

>  <IC50, µM>
1.3

$$$$

# per-item lookup of IC50; items listed below
1. CN1CCN(Cc2ccc(NC(=O)CCS)cc2)CC1 [HIPS5696]
2. CCN(CC)Cc1cccc(NC(=O)CCS)c1 [HIPS5664]
3. CC(=O)c1ccc(NC(=O)CCS)cc1 [HIPS5188]

1. 5.8
2. 5.5
3. 5.5
